Just for reference, the supplement of paper PMC11150407 is where these values come from.

Test system: MOLM1 and UCSD/AML1 (averaged)
Test Details: cell viability relative to DMSO control (POC); higher = less growth inhibition
Test Context: 1 µM; 72 h
About 45 (2%) of roughly 3,000 compounds showed an effect of 50% or more. What follows is part of a selection rich in strong results, with near analogues and random picks from the rest.
Recorded Metric: cell viability (%)
Please respond with the number in % and leave the unit unwritten.

Reference set (2 entries):
[
  {
    "Molecule": "Cc1ccc(OCCSc2ncnc3nc[nH]c23)cc1",
    "Measured On": "MOLM1 and UCSD/AML1 (averaged)",
    "Recorded Metric": "cell viability",
    "Measurement Unit": "%",
    "Observed Measurement": 92.7
  },
  {
    "Molecule": "CCCCCOc1ccc(C2=NOC(=O)/C2=C\\c2cc(Cl)ccc2O)cc1",
    "Measured On": "MOLM1 and UCSD/AML1 (averaged)",
    "Recorded Metric": "cell viability",
    "Measurement Unit": "%",
    "Observed Measurement": 92.3
  }
]

Consider the molecule shown here: COc1ccc(NC(=O)CSc2nc3c(=O)[nH]cnc3n2-c2ccc(C)cc2)cc1OC What is its recorded cell viability?
92.8

What does the data say about its cell viability? Entry: CCOC(=O)CSc1nc2c(c(=O)[nH]c(=O)n2C)n1Cc1cccc(C)c1
100

What cell viability value was documented for this molecule, COC(=O)C1=C(C)NC2=C(C(=O)CC(c3ccc(OC)c(OC)c3)C2)C1c1cc(OC)c(OC)c(OC)c1 (stereo not drawn) ?
101

Please report the recorded cell viability for COC(=O)C1=C(C)NC2=C(C(=O)CCC2)C1c1cc(OC)c(OC)c(OC)c1 (stereo not drawn) .
94.9

Which cell viability is listed for COc1cc(C2C(C#N)=C(N)Oc3n[nH]c(C)c32)ccc1O (stereo not drawn) ?
110

Item O=C(CCNc1n[nH]c(=O)[nH]c1=O)N/N=C/c1cccnc1 has what recorded cell viability?
93
